All values here come from patent US4277465A.

- method.description: Stability in aqueous solution (half-life of enamine derivatives)
- Assay type: physicochemical
- stated.conditions: pH 7.4 phosphate buffer, μ 0.15, 25° C., UV absorption spectrometry; "stable" = enamine structure retained even after 6 hours
reported.property: half-life t 0.5

>  <query.smiles>
CCOC(=O)C(=CN[C@@H](C(=O)[O-])c1ccccc1)C(=O)OCC.[Na+]

>  <observed.value>
Stable

$$$$
>  <query.smiles>
CC(=O)C=C(C)N[C@@H](C(=O)[O-])c1ccccc1.[Na+]

>  <observed.value>
Stable

$$$$
>  <query.smiles>
CCCCOC(=O)C1=C(N[C@@H](C(=O)[O-])c2ccccc2)CCC1.[Na+]

>  <observed.value>
Stable

$$$$
